Biological target: Beta-1 adrenergic receptor (Homo sapiens, UniProt P08588)
Sequence (P08588 whole entry): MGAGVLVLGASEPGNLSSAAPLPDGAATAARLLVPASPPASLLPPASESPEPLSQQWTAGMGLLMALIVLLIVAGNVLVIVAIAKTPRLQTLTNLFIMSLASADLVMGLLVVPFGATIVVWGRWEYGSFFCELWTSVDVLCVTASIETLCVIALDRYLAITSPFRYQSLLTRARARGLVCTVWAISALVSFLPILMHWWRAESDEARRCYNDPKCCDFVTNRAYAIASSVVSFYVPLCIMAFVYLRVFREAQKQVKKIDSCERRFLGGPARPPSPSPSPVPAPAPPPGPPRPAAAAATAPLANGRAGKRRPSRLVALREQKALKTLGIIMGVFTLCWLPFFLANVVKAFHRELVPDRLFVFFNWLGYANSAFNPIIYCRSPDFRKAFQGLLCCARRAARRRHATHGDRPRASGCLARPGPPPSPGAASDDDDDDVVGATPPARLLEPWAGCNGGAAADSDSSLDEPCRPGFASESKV
Listing: EC50 of selected compounds

Some solved entries appear below for comparison.
[
  {
    "SMILES STRUCTURE": "COc1ccc(Oc2ccc3c(c2)C[C@@H](NC[C@H](O)c2ccc(Cl)cc2)CC3)cc1C(=O)O",
    "EC50": "> 1 µM"
  },
  {
    "SMILES STRUCTURE": "O=C(O)c1ccc(-c2ccc3c(c2)C[C@@H](NC[C@H](O)c2cccc(Cl)c2)CC3)s1",
    "EC50": "> 1 µM"
  }
]

Proceed to the following item.
Q: Form field: reported EC50 of "O=C(O)c1ccc(-c2ccc3c(c2)C[C@@H](NC[C@H](O)c2cccnc2)CC3)cc1"
Ans: > 1 µM

* * *

// reported Ratio EC50 per item
Species on record: Homo sapiens
Assay: Ratio of EC50 for human cloned beta-1 adrenergic receptor to EC50 for human cloned beta3 adrenergic receptor

Some compounds with recorded Ratio EC50:
[
  {
    "SMILES STRUCTURE": "O=C(O)c1cccc(Oc2ccc3c(c2)C[C@@H](NC[C@H](O)c2cccnc2)CC3)c1",
    "VAL": "> 5"
  },
  {
    "SMILES STRUCTURE": "O=C(O)c1cc(Oc2ccc3c(c2)C[C@@H](NC[C@H](O)c2cccc(Cl)c2)CC3)ccc1Cl",
    "VAL": "> 62"
  },
  {
    "SMILES STRUCTURE": "O=C(O)c1ccc(-c2ccc3c(c2)C[C@@H](NC[C@H](O)c2cccnc2)CC3)cc1",
    "VAL": "> 77"
  },
  {
    "SMILES STRUCTURE": "O=C(O)c1cccnc1Oc1ccc2c(c1)C[C@@H](NC[C@H](O)c1cccc(Cl)c1)CC2",
    "VAL": "> 2"
  }
]

Next, consider the following compound.
Q: Would you kindly share the measured Ratio EC50 for "O=C(O)COc1cccc(-c2ccc3c(c2)C[C@@H](NC[C@H](O)c2cccc(Cl)c2)CC3)c1" ?
Ans: > 10

* * *

Species: Homo sapiens
Assay: Ratio of EC50 for human cloned beta-1 adrenergic receptor to EC50 for human cloned beta3 adrenergic receptor
PARAMETER: Ratio EC50

[
  {
    "SMILES STRUCTURE": "COc1cc(-c2ccc3c(c2)C[C@@H](NC[C@H](O)c2ccc(Cl)cc2)CC3)ccc1C(=O)O",
    "Ratio EC50": "> 1280"
  },
  {
    "SMILES STRUCTURE": "O=C(O)c1ccc(Oc2ccc3c(c2)C[C@@H](NC[C@H](O)c2cccc(Cl)c2)CC3)cc1",
    "Ratio EC50": "> 2.7"
  }
]

Q: What Ratio EC50 value was documented for this molecule, "COc1ccc(Oc2ccc3c(c2)C[C@@H](NC[C@H](O)c2ccc(Cl)cc2)CC3)cc1C(=O)O" ?
Ans: > 217
